Attribution: patent US20240415914A1

Assay type: physicochemical
Settings: stored at room temperature (21-25° C.), day 22
// thresholds for Stability in Powder Concentrate (content by LCMSMS) classes: LOW (below 0.4 mg/g powder), MEDIUM (0.4 mg/g powder to below 2 mg/g powder), HIGH (2 mg/g powder or more)

# molecule, assigned-label
records = [
    ("Cc1c(C)c2c(c(C)c1OC(=O)CCC(=O)O)CC[C@@](C)(CCC[C@H](C)CCC[C@H](C)CCCC(C)C)O2 [α-Tocopheryl succinate]", "MEDIUM"),
    ("CC(=O)Oc1c(C)c(C)c2c(c1C)CCC(C)(CCC[C@H](C)CCC[C@H](C)CCCC(C)C)O2 (stereo partly drawn) [α-Tocopheryl acetate]", "HIGH"),
    ("CCCCCc1cc(O)c2c(c1)OC(C)(CCC=C(C)C)C=C2 (stereo not shown)", "LOW"),
    ("CCCCCc1cc(O)c(C/C=C(\\C)CCC=C(C)C)c(O)c1", "MEDIUM"),
    ("CCCc1cc(O)c2c(c1)OC(C)(C)[C@@H]1CCC(C)=C[C@@H]21 [THCV, delta-9-tetrahydrocannabivarin]", "MEDIUM"),
]

Pick a category. Item: CCCCCc1cc2c(c(O)c1C(=O)O)[C@@H]1C=C(C)CC[C@H]1C(C)(C)O2 [D9 THCA, delta-9-tetrahydrocannabinolic acid]
LOW

Also CCCCCc1cc(O)c2c(c1)OC(C)(C)[C@@H]1CCC(C)=C[C@@H]21 [D9 THC, delta-9-tetrahydrocannabinol, reference compound] ?
HIGH

Now this one: `CCCCCc1cc(O)c2c(c1)OC(C)(C)c1ccc(C)cc1-2`
MEDIUM

# iterate: CCCCCc1cc(O)c2c(c1)OC1(C)CCC3C1C2C3(C)C (stereo not shown)
LOW

Another molecule: `C=C(C)[C@@H]1CCC(C)=C[C@H]1c1c(O)cc(CCCCC)c(C(=O)O)c1O`
MEDIUM

###

Assay: Stability of cannabinoid and Vitamin E components of Beverage 2 (AB Red) stored at 8° C. and 21-25° C., LCMSMS over 570 days
Conditions: 21-25° C., 16 days
Stability of Cannabinoids in AB Red values by entry
Give a bare numeral; the unit µg/mL is implied.

Some entries whose results are on file:
# molecule, Stability of Cannabinoids in AB Red [µg/mL]
records = [
    ("CCCCCc1cc2c(c(O)c1C(=O)O)[C@@H]1C=C(C)CC[C@H]1C(C)(C)O2 [D9 THCA, delta-9-tetrahydrocannabinolic acid]", 1.36),
    ("C=C(C)[C@@H]1CCC(C)=C[C@H]1c1c(O)cc(CCCCC)c(C(=O)O)c1O [CBDA, cannabidiolic acid]", 1.67),
    ("CCCCCc1cc(O)c2c(c1)OC(C)(C)c1ccc(C)cc1-2 [CBN, cannabinol]", 2.81),
    ("CCCCCc1cc(O)c2c(c1)OC(C)(C)[C@@H]1CCC(C)=C[C@@H]21 [D9 THC, delta-9-tetrahydrocannabinol, reference compound]", 12.4),
    ("CCCc1cc(O)c2c(c1)OC(C)(C)[C@@H]1CCC(C)=C[C@@H]21 [THCV, delta-9-tetrahydrocannabivarin]", 3.20),
    ("CCCCCc1cc(O)c2c(c1)OC(C)(CCC=C(C)C)C=C2 (stereo not drawn) [CBC, cannabichromene]", 0.28),
    ("CCCCCc1cc(O)c(C/C=C(\\C)CCC=C(C)C)c(O)c1 [CBG, cannabigerol]", 4.75),
    ("C=C(C)[C@@H]1CCC(C)=C[C@H]1c1c(O)cc(CCC)cc1O [CBDV, cannabidivarin]", 0.19),
]

As a next step, examine the molecule that follows.
Item CCCCCc1cc(O)c2c(c1)OC1(C)CCC3C1C2C3(C)C (stereo not drawn) [CBL, cannabicyclol] has what recorded Stability of Cannabinoids in AB Red?
0.51
